Reference for the values: ChEMBL document CHEMBL1157087

- Tested on: KB
- Assay: Cytotoxicity against human KB cells after 3 days by SRB assay
- Format: functional, cell-based
- Reported Conditions: 72 h
Assay Endpoint: IC50 (µg/mL)
Numbers only here, please. The scale is µg/mL.

Check out these entries, answers already filled in.
C=C(C)CC[C@H](C[C@@H]1C[C@@]2(CC=C(C)C)C(=O)C3=C(O[C@H](C(C)(C)O)C3)[C@](C(=O)c3ccc(O)c(O)c3)(C2=O)C1(C)C)C(=C)C; 3.4
C=C(C)CCC(C[C@@]12C[C@H]3[C@@H](C=C(C)C)[C@@](C(=O)c4ccc(O)c(O)c4)(C1=O)C(=O)[C@@](CC=C(C)C)(C2=O)C3(C)C)C(=C)C (some centres not stated); 5.7
C=C(C)[C@@H]1C[C@]23C[C@H](CC=C(C)C)C(C)(C)[C@](CC=C(C)C)(C(=O)C(C(=O)c4ccc(O)c(O)c4)=C2O[C@H]1C=C(C)C)C3=O; 5.7
C=C(C)CC[C@H](C[C@@H]1C[C@]2(CC=C(C)C)C(=O)[C@@](C(=O)c3ccc(O)c(O)c3)(C(=O)C(CC=C(C)C)=C2O)C1(C)C)C(=C)C; 3.9
C=C(C)CC[C@H]1C[C@@]23C[C@@H](CC=C(C)C)C(C)(C)[C@@](CC=C(C)C)(C(=O)C(C(=O)c4ccc(O)c(O)c4)=C2OC1(C)C)C3=O; 4.9

# ---- query compound ----
Q: Request the reported IC50 associated with C=C(C)CCC(C[C@]12C[C@@H]3[C@H](C=C(C)C)[C@](C(=O)c4ccc(O)c(O)c4)(C1=O)C(=O)[C@](CC=C(C)C)(C2=O)C3(C)C)C(=C)C (some centres not stated)
Ans: 4.4
